Data credit: PubChem BioAssay (NCI)

method description: NCI Yeast Anticancer Drug Screen. Data for the cln2 rad14 strain (AID 165);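 further: 0% = growth equal to vehicle treated cultures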
measurement conditions: S. cerevisiae cln2 rad14 strain, at 50.0 µM, active compounds read high
About 79,000 compounds went through this panel and 15% of them were active in at least one assay; those are over-represented in the sample as a whole.
growth inhibition overview
property label: growth inhibition (%)

INSERT INTO measurements (molecule, numeric_result) VALUES
  ('Cc1cn(CCCCCCCCCCCCOc2c3occc3cc3ccc(=O)oc23)c(=O)[nH]c1=O', 23.2),
  ('CCOC(=O)C(CCSC)(CCN(C)Cc1ccccc1)C(=O)OCC', -0.9),
  ('CCc1ccc(/C(C#N)=C/c2cccc3ccccc23)cc1', -1.9),
  ('Cc1cc(C)n(-c2ccncc2[N+](=O)[O-])n1', -13.8),
  ('O=C1c2cc(Cl)ccc2-c2c(Cl)cccc21', 2.05),
  ('COC(=O)c1ccccc1CC1Cc2ccc3c(c2C1)CCC3 (stereo unspecified)', -31.6);
